# measurement notes: Binding affinity to d(CTG) duplex DNA sequence (unknown origin) assessed as equilibrium dissociation constant by isothermal titration method
# test context: read-out: Kd(app)
test readout: Kd (µM)
Give your result in µM as a bare value.

Fill in: Kd of `CNC(=O)c1cccc2c(NCCCCNc3nc(N)nc(N)n3)c3ccccc3nc12` is ___ 69

====

# measurement notes: Inhibition of d(CTG.CAG)74 DNA sequence (unknown origin) transcription at 25 uM pre-incubated for 3 hrs followed by addition of T7 polymerase and measured after 1.5 hrs by PAGE analysis
test readout: inhibition (%)
Give your result in % as a bare value.

The cases that follow already have their inhibition on record.
{"sample smiles": "Nc1nc2nc(n1)NCCCNC(=O)c1cccc3c(c4ccccc4nc13)NCCCCN2", "test readout": "inhibition", "observed measurement": 85}
{"sample smiles": "CNC(=O)c1cccc2c(NCCCCNc3nc(N)nc(N)n3)c3ccccc3nc12", "test readout": "inhibition", "observed measurement": 35}
{"sample smiles": "Nc1nc2nc(n1)NCCCNc1c3ccccc3nc3c(cccc13)C(=O)NCCCCN2", "test readout": "inhibition", "observed measurement": 60}

Fill in: inhibition of `Nc1nc2nc(n1)NCCCNc1c3ccccc3nc3c(cccc13)C(=O)NCCCN2` is ___ 60

====

Reported Selectivity ratio is given for each of the following compounds.
# measurement notes: Selectivity ratio of transcription inhibition of random DNA sequence (unknown origin) to transcription inhibition of d(CTG.CAG)74 DNA sequence (unknown origin) by PAGE analysis

{"sample smiles": "CNC(=O)c1cccc2c(NCCCCNc3nc(N)nc(N)n3)c3ccccc3nc12", "observed measurement": 3}
{"sample smiles": "Nc1nc2nc(n1)NCCCNc1c3ccccc3nc3c(cccc13)C(=O)NCCCN2", "observed measurement": 3}
{"sample smiles": "Nc1nc2nc(n1)NCCCCNc1c3ccccc3nc3c(cccc13)C(=O)NCCCCN2", "observed measurement": 3}

Next compound, Selectivity ratio to be filled in.
Fill in: Selectivity ratio of `Nc1nc2nc(n1)NCCCNc1c3ccccc3nc3c(cccc13)C(=O)NCCCCN2` is ___ 3

====

# measurement notes: Binding affinity to d(CTG) T-T 2 DNA sequence (unknown origin) assessed as equilibrium dissociation constant by isothermal titration method
test readout: pKd
When answering, recall that pKd equals minus log10 of the concentration in mol/L, and write that number alone.

Fill in: pKd of `Nc1nc2nc(n1)NCCCNc1c3ccccc3nc3c(cccc13)C(=O)NCCCN2` is ___ 4.70

====

# measurement notes: Binding affinity to d(CTG) T-T DNA sequence (unknown origin) assessed as equilibrium dissociation constant by isothermal titration method
# test context: read-out: Kd(app)
test readout: Kd (µM)
Give your result in µM as a bare value.

The cases that follow already have their Kd on record.
{"sample smiles": "Nc1nc2nc(n1)NCCCNC(=O)c1cccc3c(c4ccccc4nc13)NCCCCN2", "Kd (µM)": 19.8}
{"sample smiles": "Nc1nc2nc(n1)NCCCNc1c3ccccc3nc3c(cccc13)C(=O)NCCCCN2", "Kd (µM)": 34.9}
{"sample smiles": "Nc1nc2nc(n1)NCCCNc1c3ccccc3nc3c(cccc13)C(=O)NCCCN2", "Kd (µM)": 18.1}

Next compound, Kd to be filled in.
Fill in: Kd of `CNC(=O)c1cccc2c(NCCCCNc3nc(N)nc(N)n3)c3ccccc3nc12` is ___ 5.8
